# test.details: Cytotoxicity against mouse RAW264.7 cells assessed as cell viability up to 20 uM by MTS assay relative to control
# Format: cell-based
# assay.setup: read-out: Activity
recorded.metric: viability (%)
Answer format: numeric, % implied, no suffix.

IN: Requested read-out: viability. Entry: `CC1=C(C=O)C(C)(C)[C@H](CC[C@H]2CC[C@]3(OC2)O[C@@]2(O)CC[C@]3(C)OC2(C)C)CC1`
OUT: 60

This collection of values is drawn from ChEMBL document CHEMBL4371102.
